# assaySystem: T1, SCRIB-3/4 (MBP fusion of the third of the four PDZ domains of SCRIB) (human, UniProt Q14160-1 997-1093)
# T1 construct: also called MBP-PDZ analyte SCRIB-3/4; source: E. coli BL21 DE3, purified (amylose column, Superdex 75 gel filtration)
# T1 sequence (looked up): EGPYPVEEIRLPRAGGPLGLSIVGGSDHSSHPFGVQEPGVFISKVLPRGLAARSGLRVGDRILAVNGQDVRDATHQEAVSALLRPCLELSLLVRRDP
# test: SPR
# testSettings: both partners purified
pKd: −log10 of the molar value. Ends that are not written are not given here. * marks the point of attachment. Biotin = O=C1N[C@H]2[C@H](CS[C@H]2CCCCC(=O)*)N1
measurementName: pKd

[
  {
    "binder": "Biotin-SSRTRRETQL (source: synthetic peptide (JPT Peptide Technologies)) [16E6 (long peptide of HPV16 early protein E6: the last ten residues)]",
    "measurementName": "pKd",
    "measValue": 4.82
  },
  {
    "binder": "Biotin-NRVDSKETEC (also called ADAM17 long; source: synthetic peptide (JPT Peptide Technologies))",
    "measurementName": "pKd",
    "measValue": 4.01
  },
  {
    "binder": "Biotin-GSGAGKETVV (also called MARCH3 short; source: synthetic peptide (JPT Peptide Technologies)) [MARCH3_05 (short peptide of E3 ubiquitin-protein ligase MARCH3: GSGAG and the last five residues)]",
    "measurementName": "pKd",
    "measValue": 4.34
  },
  {
    "binder": "Biotin-GSGAGSETSV (also called VANG2 short; source: synthetic peptide (JPT Peptide Technologies)) [VANG2_05 (short peptide of Vang-like protein 2: GSGAG and the last five residues)]",
    "measurementName": "pKd",
    "measValue": 4.62
  }
]
